tgt: labeled peptide representing the N-terminus of PAR-2 (FRET assay)
test: cell-based or functional assay
propertyMeasured: FRET Peptide Cleavage IC50

Hey, can you go through the list below and give me FRET Peptide Cleavage IC50 for every item?
1. Ab4996 IgG4_Pro (antibody, V domains shown, IgG4_Pro (human IgG4 constant regions, Ser241Pro hinge), lambda; also called IgG4p Ab4996) VH: QVQLVESGGGLVQPGGSLRLSCAASGFTFSNHAMHWVRQAPGKGLEWVSAISHPGKFTYYADSVKGRFTISRDNSKNTLYLQMNSLRAEDTAVYYCARHGDGMDYFDFWGQGTLVTVSS VL: DIELTQPPSVSVAPGQTARISCSGDNIGTKYVYWYQQKPGQAPVLVIYDDNNRPSGIPERFSGSNSGNTATLTISGTQAEDEADYYCQSYDSQTMVFGGGTKLTVLG
2. Ab5005 IgG4_Pro (antibody, V domains shown, IgG4_Pro (human IgG4 constant regions, Ser241Pro hinge), lambda; also called IgG4p Ab5005) VH: QVQLVESGGGLVQPGGSLRLSCAASGFTFSSYAMNWVRQAPGKGLEWVSTISYSSSATSYADSVKGRFTISRDNSKNTLYLQMNSLRAEDTAVYYCARIQNDPMDVWGQGTLVTVSS VL: DIELTQPPSVSVAPGQTARISCSGDNLGKKYVQWYQQKPGQAPVLVIYDDSNRPSGIPERFSGSNSGNTATLTISGTQAEDEADYYCQSWALVGSSESNVFGGGTKLTVLG
3. Ab5003 IgG4_Pro (antibody, V domains shown, IgG4_Pro (human IgG4 constant regions, Ser241Pro hinge), lambda; also called IgG4p Ab5003) VH: QVQLVESGGGLVQPGGSLRLSCAASGFTFSSYAMNWVRQAPGKGLEWVSAISYKGHLTGYADSVKGRFTISRDNSKNTLYLQMNSLRAEDTAVYYCARIQNDPMDVWGQGTLVTVSS VL: DIELTQPPSVSVAPGQTARISCSGDNLGKKYVQWYQQKPGQAPVLVIYDDSNRPSGIPERFSGSNSGNTATLTISGTQAEDEADYYCSSWDVGSDGWVFGGGTKLTVLG

< 30 nM
< 30 nM
< 30 nM
